molecular target: Galanin receptor type 3 (Homo sapiens); assay: GalR3 antagonists in HEK293 cells, primary screen, cell-based, fluorescence readout (AID 651719); details: HEK293 GalR3-CNG cAMP membrane potential fluorescence; at 3 µM; active compounds read high; galR3 body fused to GalR1 C-terminus;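 also: forskolin and galanin both at EC90 stimulate the cells; cAMP rise reported by CNG channel membrane potential dye signal; 0% = forskolin plus galanin with DMSO and 100% = forskolin alone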
Hit rate of the full screen: of about 360,000 compounds, about 1,600 (0.44%) were called active. This excerpt belongs to a sample that is enriched for actives.
quantity_name: inhibition (%)
The figure you give is taken to be in %; do not add the unit.

IN: Dear colleague, please send me the reported inhibition for `CCc1c(C)nc(SCC(=O)NC2CCCC2)[nH]c1=O` when you can.
OUT: -6.61

IN: Dear colleague, please send me the reported inhibition for `COC(=O)c1ccccc1NC(=O)CSc1n[nH]c(-c2ccncc2)n1` when you can.
OUT: -2.72

IN: Dear colleague, please send me the reported inhibition for O=C(C1CCCN(S(=O)(=O)c2ccccc2)C1)N1CCN(c2ccc(F)cc2)CC1 (stereo unspecified) when you can.
OUT: -0.67

IN: Dear colleague, please send me the reported inhibition for CC(=O)N1c2ccc(S(=O)(=O)N3CCC(C(=O)N4CCN(c5ccccc5)CC4)CC3)cc2CC1C (stereo unspecified) when you can.
OUT: 0.42

IN: Dear colleague, please send me the reported inhibition for `CCOC(=O)N1CCN(Cc2nc3cc(NC(C)=O)ccc3n2C)CC1` when you can.
OUT: -9.27

IN: Dear colleague, please send me the reported inhibition for `O=C1Nc2ccccc2C1=NN=Cc1ccco1` when you can.
OUT: -6.76

====

biological target: Galanin receptor type 3 (Homo sapiens) (UniProt O60755); assay: GalR3 antagonists in HEK293 cells, primary screen, cell-based, fluorescence readout (AID 651719); conditions: HEK293 GalR3-CNG cAMP membrane potential fluorescence; at 3 µM; active compounds read high; galR3 body fused to GalR1 C-terminus;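 also: forskolin and galanin both at EC90 stimulate the cells; cAMP rise reported by CNG channel membrane potential dye signal; 0% = forskolin plus galanin with DMSO and 100% = forskolin alone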
Sequence (O60755 1-299 limits assumed): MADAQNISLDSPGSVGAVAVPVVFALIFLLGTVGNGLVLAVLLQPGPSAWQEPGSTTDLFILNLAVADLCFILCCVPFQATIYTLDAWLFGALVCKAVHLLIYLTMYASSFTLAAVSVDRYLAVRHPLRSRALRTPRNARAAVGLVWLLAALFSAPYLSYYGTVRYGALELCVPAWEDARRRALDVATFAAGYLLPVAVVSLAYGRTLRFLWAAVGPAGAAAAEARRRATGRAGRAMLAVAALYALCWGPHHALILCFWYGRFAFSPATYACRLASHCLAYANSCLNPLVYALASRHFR
Out of some 360,000 compounds screened, about 1,600 (0.44%) were called active. Many of the other results were omitted from the sample, so actives are more common in it than they were.
I'd be grateful if you could share measured inhibition for these entries.
The figure you give is taken to be in %; do not add the unit.

IN: Dear colleague, please send me the reported inhibition for `CC[C@H](NC(=O)[C@H](Cc1ccccc1)NC(=O)[C@H]1O[C@@H](n2cnc3c(=O)[nH]c(N)nc32)[C@H](O)[C@@H]1O)c1ccccc1` when you can.
OUT: -6.3

IN: Dear colleague, please send me the reported inhibition for `Nc1ncnc2c1ncn2[C@@H]1O[C@H](C(=O)N[C@@H](CCc2ccccc2)C(=O)N2CCCN(Cc3cccs3)CC2)[C@@H](O)[C@H]1O` when you can.
OUT: -6.23

IN: Dear colleague, please send me the reported inhibition for `CCn1c(-c2cc(OC)ccc2OC)csc1=Nc1c(C)n(C)n(-c2ccccc2)c1=O` when you can.
OUT: 12.9

IN: Dear colleague, please send me the reported inhibition for CC(=O)c1cccc(OCc2cc(C(=O)NC(C)Cc3cccnc3)no2)c1 (stereo not drawn) when you can.
OUT: 0.17

IN: Dear colleague, please send me the reported inhibition for `O=c1[nH]c(-c2ccccc2)cn1C1CCN(Cc2ccc(-c3nc4ccc(F)cc4nc3-c3ccccc3)cc2)CC1` when you can.
OUT: -7.59

IN: Dear colleague, please send me the reported inhibition for C=CCN=C1NC(c2cccc(C(F)(F)F)c2)C(C(=O)OC)=C(C)N1C (stereo not drawn) when you can.
OUT: -7.24

IN: Dear colleague, please send me the reported inhibition for `CN[C@H]1C[C@H]2c3[nH]c4c(-c5ccccc5)cccc4c3CCN2C(=O)[C@H]1[C@H](C)O` when you can.
OUT: -8.33

IN: Dear colleague, please send me the reported inhibition for COC(=O)C1=C(C(=O)OC)C2C=C(C(C)C)C1C(=O)C2(C)O (stereo not drawn) when you can.
OUT: -4.32

IN: Dear colleague, please send me the reported inhibition for `O=C(NN=Cc1ccco1)C(=O)Nc1ccc(Cl)c([N+](=O)[O-])c1` when you can.
OUT: -5.99

IN: Dear colleague, please send me the reported inhibition for `Cc1cc(C(=O)OCC(=O)N2c3ccccc3NC(=O)C2(C)C)c(C)n1-c1ccccc1` when you can.
OUT: -4.87

IN: Dear colleague, please send me the reported inhibition for `CC(C)C[C@H](NC(=O)CC1CCCC1)C(=O)N1CCC[C@H]1C(=O)NCc1ccccc1` when you can.
OUT: 1.69

IN: Dear colleague, please send me the reported inhibition for CC(C)[C@@H](C)/C=C/[C@@H](C)[C@H]1CC[C@@H]2[C@]1(C)CCC1[C@]23C=C[C@]2(C[C@@H](O)CC[C@]12C)N(c1ccc([N+](=O)[O-])cn1)O3 (stereo partly drawn) when you can.
OUT: 2.02

IN: Dear colleague, please send me the reported inhibition for `Clc1c(OCCCn2ccnc2)ccc2ccccc12` when you can.
OUT: -12.1

IN: Dear colleague, please send me the reported inhibition for COc1ccc(CN2CCCC(C(=O)c3ccc(Cl)cc3)C2)cc1Cn1cncn1 (stereo not drawn) when you can.
OUT: -0.72

IN: Dear colleague, please send me the reported inhibition for `CCOc1ccccc1C(=O)N1CCC[C@@H]1C(=O)N1CCC[C@H]1C(=O)NCc1ccccc1` when you can.
OUT: -4.67

IN: Dear colleague, please send me the reported inhibition for `COc1cccc(NC(=O)N(C)C[C@@H]2OCc3cn(nn3)CCCC(=O)N([C@@H](C)CO)C[C@H]2C)c1` when you can.
OUT: -0.11

IN: Dear colleague, please send me the reported inhibition for `CCOC(=O)c1cc2n(c1C)-c1ccccc1C2=O` when you can.
OUT: 15.1

IN: Dear colleague, please send me the reported inhibition for `CCCCCCCCn1c2c(c(=N)c3c1CCC3)CCCC2` when you can.
OUT: 30.2

====

target: Galanin receptor type 3 (Homo sapiens) (UniProt O60755); assay: GalR3 antagonists in HEK293 cells, primary screen, cell-based, fluorescence readout (AID 651719); settings: HEK293 GalR3-CNG cAMP membrane potential fluorescence; at 3 µM; galR3 body fused to GalR1 C-terminus;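 also: forskolin and galanin both at EC90 stimulate the cells; cAMP rise reported by CNG channel membrane potential dye signal; 0% = forskolin plus galanin with DMSO and 100% = forskolin alone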
About 1,600 (0.44%) of roughly 360,000 compounds were called active.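 The calls were made as follows: active = inhibition above the screen-wide average plus 3 SD (cut at about 13% in these data); inactive = the rest.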 Shown is part of a subset that was picked to be rich in actives.
Thanks in advance; please answer with one of these: TRUE for active, FALSE for inactive

IN: Dear colleague, could you share the recorded outcome for CC(CCc1ccccc1)NCC(O)c1cccc([N+](=O)[O-])c1 (centres undefined) when you have a moment?
OUT: TRUE

IN: Dear colleague, could you share the recorded outcome for O=C(CC(c1ccccc1)c1ccccc1)NCC(O)c1ccc([N+](=O)[O-])cc1 (centres undefined) when you have a moment?
OUT: FALSE

IN: Dear colleague, could you share the recorded outcome for `COC(=O)[C@]12C[C@H](CC(=O)NCc3ccccc3)C(=O)N(CCC3=CCCCC3)C1=C[C@H](C(C)(C)C)O[C@@H]2C` when you have a moment?
OUT: FALSE

IN: Dear colleague, could you share the recorded outcome for COC(=O)C1=C(C)N(Cc2ccc(C(F)(F)F)cc2)C(=NCc2ccc(C(F)(F)F)cc2)NC1c1cccc(Cl)c1 (centres undefined) when you have a moment?
OUT: FALSE

====

target: Galanin receptor type 3 (Homo sapiens) (UniProt O60755); experiment: GalR3 antagonists in HEK293 cells, primary screen, cell-based, fluorescence readout (AID 651719); details: HEK293 GalR3-CNG cAMP membrane potential fluorescence; at 3 µM; active compounds read high; galR3 body fused to GalR1 C-terminus;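 also: forskolin and galanin both at EC90 stimulate the cells; cAMP rise reported by CNG channel membrane potential dye signal; 0% = forskolin plus galanin with DMSO and 100% = forskolin alone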
Among all 360,000 compounds or so, about 1,600 (0.44%) were called active. The sample holds actives, similar compounds and a random draw of the others, so the mix is not that of the screen.
quantity_name: inhibition (%)
The figure you give is taken to be in %; do not add the unit.

IN: Dear colleague, please send me the reported inhibition for `Cn1c(N)c(C(=O)COC(=O)c2ccc3ccccc3c2)c(=O)n(C)c1=O` when you can.
OUT: -4.21

IN: Dear colleague, please send me the reported inhibition for CN1C(=O)C2CC(O)C(SC3CC4C(=O)N(C)C(=O)C4CC3O)CC2C1=O (centres undefined) when you can.
OUT: -2.8

IN: Dear colleague, please send me the reported inhibition for `Cn1c(N)c(C(=O)COC(=O)COc2ccc(Cl)cc2)c(=O)n(C)c1=O` when you can.
OUT: -5.52

IN: Dear colleague, please send me the reported inhibition for `CC[C@H](C)[C@H]1CNC(=O)C(=O)N1CC1CCN(CCc2ccc(OC)c(OC)c2)CC1` when you can.
OUT: 1.44

IN: Dear colleague, please send me the reported inhibition for `COc1ccc(OC)c2c(N)c(C#N)c(C(F)(F)C(F)(F)F)nc12` when you can.
OUT: 1.89

IN: Dear colleague, please send me the reported inhibition for `COCc1cc(N2CCN(C(=O)OC(C)(C)C)C[C@@H]2C)ccc1N1CCN(Cc2ccccc2)[C@H](C)C1` when you can.
OUT: -0.36

IN: Dear colleague, please send me the reported inhibition for Cc1ccc(C)c(CN2CCC(CNC(=O)C3CCCN(c4ncnc5c4nc4n5CCCCC4)C3)CC2)c1 (centres undefined) when you can.
OUT: -1.9

IN: Dear colleague, please send me the reported inhibition for COc1ccc(C2CC(=O)Nc3sc(=N)c4c(N)c(C#N)c(N)nc4c32)cc1OC (centres undefined) when you can.
OUT: 64.7

IN: Dear colleague, please send me the reported inhibition for `Cn1c(N)c(C(=O)COC(=O)c2cnc(Cl)c(Cl)c2)c(=O)n(C)c1=O` when you can.
OUT: 18.3
